Target: Human immunodeficiency virus type 1 protease (Human immunodeficiency virus 1, UniProt Q72874)
Hi! Just check whether Ki is below 50 nM. Below gives Condition met, equal or above gives Condition not met.

compound_smiles: COc1ccc(S(=O)(=O)N(CC2CCCC2)C[C@@H](O)CN2C(=O)[C@H](C)OC[C@@H]2Cc2ccccc2)cc1
label: Condition met
--
compound_smiles: COc1ccc(S(=O)(=O)N(CC2CCCC2)C[C@@H](O)CN2C(=O)[C@@H](Cc3ccccc3)OC[C@@H]2Cc2ccccc2)cc1
label: Condition met
--
compound_smiles: COc1ccc(S(=O)(=O)N(CC2CCCC2)C[C@@H](O)CN2C(=O)[C@@H](CCN=[N+]=[N-])OC[C@@H]2Cc2ccccc2)cc1
label: Condition not met
--
compound_smiles: COc1ccc(S(=O)(=O)N(CC2CCCC2)C[C@@H](O)CN2C(=O)[C@@H](CCN)OC[C@@H]2Cc2ccccc2)cc1
label: Condition not met
--
compound_smiles: C=CC[C@H]1OC[C@H](Cc2ccccc2)N(C[C@H](O)CN(CC2CCCC2)S(=O)(=O)c2ccc(OC)cc2)C1=O
label: Condition met
--
compound_smiles: COc1ccc(S(=O)(=O)N(CC2CCCC2)C[C@@H](O)CN2C(=O)C3(CC3)OC[C@@H]2Cc2ccccc2)cc1
label: Condition met
